The reader will find reported EC50 values listed item by item below.
# experiment: Liposomal membrane disruption assay (carboxyfluorescein LUVs)
# Assay type: biochemical
# condition.label: PC/PG/3 LUVs, 1st experiment; read-out: EC50 PC/PG/3 1st
Where a SMILES comes first, the peptide text is derived from it. Bridges are numbered along the chain shown (N, C = ends). [ ]: non-standard residue; d: D form. The star is where a group is joined. Hexanoyl(3R-OH,5-Me) = CC(C)C[C@@H](O)CC(=O)*; dNMeF = CN[C@H](Cc1ccccc1)C(=O)O; dOrn = NCCC[C@@H](N)C(=O)O
Only the number, expressed in nM, is required.

Solved entries:
CC[C@H](C)[C@@H]1NC(=O)[C@@H](Cc2c[nH]c3ccccc23)NC(=O)[C@@H](CCCN)NC(=O)[C@H](CCC(=O)O)NC(=O)[C@@H](CCCNC(=N)N)NC(=O)[C@H](CC(C)C)NC(=O)[C@@H](Cc2ccccc2)N(C)C(=O)CNC(=O)[C@H](Cc2ccc(O)cc2)NC(=O)[C@@H](CCCNC(=N)N)NC(=O)[C@@H](NC(=O)C[C@H](O)CC(C)C)[C@@H](C)OC(=O)[C@H]([C@@H](C)O)NC1=O [Peptide A7] ({Hexanoyl(3R-OH,5-Me)}-T[dR]YG[dNMeF]L[dR]E[dOrn][dW]IT; ester 1-C)
334
CC[C@H](C)[C@@H]1NC(=O)[C@@H](Cc2c[nH]c3ccccc23)NC(=O)[C@@H](C(C)C)NC(=O)[C@H](CCC(=O)O)NC(=O)[C@@H](CCCNC(=N)N)NC(=O)[C@H](CC(C)C)NC(=O)[C@@H](Cc2ccccc2)N(C)C(=O)CNC(=O)[C@H](CCCCN)NC(=O)[C@@H](CCCNC(=N)N)NC(=O)[C@@H](NC(=O)C[C@H](O)CC(C)C)[C@@H](C)OC(=O)[C@H]([C@@H](C)O)NC1=O [Peptide A3] ({Hexanoyl(3R-OH,5-Me)}-T[dR]KG[dNMeF]L[dR]E[dV][dW]IT; ester 1-C)
47.4
CC[C@H](C)[C@@H]1NC(=O)[C@@H](Cc2c[nH]c3ccccc23)NC(=O)[C@@H](CCCN)NC(=O)[C@H](CCC(=O)O)NC(=O)[C@@H](CCCNC(=N)N)NC(=O)[C@H](CC(C)C)NC(=O)[C@@H](Cc2ccccc2)N(C)C(=O)CNC(=O)[C@H](CC(=O)O)NC(=O)[C@@H](CCCNC(=N)N)NC(=O)[C@@H](NC(=O)C[C@H](O)CC(C)C)[C@@H](C)OC(=O)[C@H]([C@@H](C)O)NC1=O [Peptide A16] ({Hexanoyl(3R-OH,5-Me)}-T[dR]DG[dNMeF]L[dR]E[dOrn][dW]IT; ester 1-C)
892

Now examine the next entry.
Task: Give the value of EC50 reported for the following: CC[C@H](C)[C@@H]1NC(=O)[C@@H](Cc2c[nH]c3ccccc23)NC(=O)[C@@H](CCCN)NC(=O)[C@H](CCC(=O)O)NC(=O)[C@@H](CCCNC(=N)N)NC(=O)[C@H](CC(C)C)NC(=O)[C@@H](Cc2ccccc2)N(C)C(=O)CNC(=O)[C@H](CC(N)=O)NC(=O)[C@@H](CCCNC(=N)N)NC(=O)[C@@H](NC(=O)C[C@H](O)CC(C)C)[C@@H](C)OC(=O)[C@H]([C@@H](C)O)NC1=O [Peptide A14] ({Hexanoyl(3R-OH,5-Me)}-T[dR]NG[dNMeF]L[dR]E[dOrn][dW]IT; ester 1-C)
Result: 999

###

# experiment: Liposomal membrane disruption assay (carboxyfluorescein LUVs)
# Assay type: biochemical
# condition.label: PC/PG/3 LUVs, 1st experiment; read-out: EC50 PC/PG/3 1st
Where a SMILES comes first, the peptide text is derived from it. Bridges are numbered along the chain shown (N, C = ends). [ ]: non-standard residue; d: D form. The star is where a group is joined. Hexanoyl(3R-OH,5-Me) = CC(C)C[C@@H](O)CC(=O)*; dNMeF = CN[C@H](Cc1ccccc1)C(=O)O
observable: pEC50
In simple prose, pEC50 is minus the logarithm base ten of a concentration in moles per litre.

Task: Supply measured pEC50 of CC(C)C[C@@H](O)CC(=O)N[C@@H]1C(=O)N[C@H](CCCNC(=N)N)C(=O)N[C@@H](C)C(=O)NCC(=O)N(C)[C@H](Cc2ccccc2)C(=O)N[C@@H](CC(C)C)C(=O)N[C@H](CCCNC(=N)N)C(=O)N[C@@H](CCC(=O)O)C(=O)N[C@H](Cc2ccc(O)cc2)C(=O)N[C@H](Cc2c[nH]c3ccccc23)C(=O)N[C@@H](Cc2ccc(O)cc2)C(=O)N[C@@H]([C@@H](C)O)C(=O)O[C@@H]1C [Peptide A15] ({Hexanoyl(3R-OH,5-Me)}-T[dR]AG[dNMeF]L[dR]E[dY][dW]YT; ester 1-C) in your reply.
Result: 6.64

###

# experiment: Liposomal membrane disruption assay (carboxyfluorescein LUVs)
# Assay type: biochemical
# condition.label: PC/PG LUVs, 2nd experiment; read-out: EC50 PC/PG 2nd
# Description: Preparation of LUVs consisting of PC/PG. […] Concentration of egg yolk phosphatidylcholine was determined by using Phospholipid C-Test Wako (Fujifilm Wako Pure Chemical). […] to various concentrations as 5-fold serial dilutions. […] The plates were vortexed at room temperature for 30 min, and then fluorescence of carboxyfluorescein (Ex. 490 nm/Em. 517 nm) of each well was measured at room temperature on Gemini EM microplate reader. […]
Where a SMILES comes first, the peptide text is derived from it. Bridges are numbered along the chain shown (N, C = ends). [ ]: non-standard residue; d: D form. The star is where a group is joined. Hexanoyl(3R-OH,5-Me) = CC(C)C[C@@H](O)CC(=O)*; dNMeF = CN[C@H](Cc1ccccc1)C(=O)O; dOrn = NCCC[C@@H](N)C(=O)O
observable: EC50 (µM)
Reply numerically in µM, unit not repeated.

Task: # return recorded EC50 for entry CC[C@H](C)[C@@H]1NC(=O)[C@@H](Cc2c[nH]c3ccccc23)NC(=O)[C@@H](CCCN)NC(=O)[C@H](CCC(=O)O)NC(=O)[C@@H](CCCNC(=N)N)NC(=O)[C@H](CC(C)C)NC(=O)[C@@H](Cc2ccccc2)N(C)C(=O)CNC(=O)[C@H](Cc2ccc(O)cc2)NC(=O)[C@@H](CCCNC(=N)N)NC(=O)[C@@H](NC(=O)C[C@H](O)CC(C)C)[C@@H](C)OC(=O)[C@H]([C@@H](C)O)NC1=O [Peptide A7] ({Hexanoyl(3R-OH,5-Me)}-T[dR]YG[dNMeF]L[dR]E[dOrn][dW]IT; ester 1-C)
Result: 1.12
